- measurement_target: Human GPR40 (Homo sapiens, UniProt O14842)
- Sequence (O14842 whole entry): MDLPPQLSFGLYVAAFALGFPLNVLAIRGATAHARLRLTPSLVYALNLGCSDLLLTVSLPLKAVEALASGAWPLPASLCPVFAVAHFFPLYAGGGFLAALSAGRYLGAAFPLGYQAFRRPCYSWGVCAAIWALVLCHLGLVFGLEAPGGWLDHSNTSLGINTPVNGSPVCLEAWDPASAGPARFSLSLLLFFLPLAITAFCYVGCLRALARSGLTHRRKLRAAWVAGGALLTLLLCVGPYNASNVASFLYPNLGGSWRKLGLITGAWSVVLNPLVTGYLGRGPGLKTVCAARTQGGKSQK
- method_description: FLIPR assay (agonist-induced calcium mobilization)
- Format: cell-based
- Design: expressed in transfected cells
- test_settings: GPR40/CHO NFAT BLA cells
readout_label: EC50 (µM)

{"smi": "Cc1cc(OCCC(C)(C)O)ccc1-c1cc(COc2cc3c(cn2)[C@H]2[C@@H](C3)[C@@H]2C(=O)O)c(F)cc1C(F)F", "measurement_target": "Human GPR40 (Homo sapiens, UniProt O14842)", "unit_label": "µM", "numeric_result": 0.0144}

[P] Cc1cc(OCCC(C)(C)O)ccc1-c1cc(COc2cc3c(cn2)[C@H]2[C@@H](C3)[C@@H]2C(=O)O)c(F)cc1C(F)(F)F
[Q] Cc1cc(OCCC2(O)COC2)ccc1-c1cc(COc2cc3c(cn2)[C@H]2[C@@H](C3)[C@@H]2C(=O)O)c(F)cc1C(F)(F)F
Exam item: Record comparison, field EC50: mark the lower of P and Q . Identify your pick by its label.
Marked response: Q
